tested-on: Alpha-2C adrenergic receptor (Homo sapiens) (UniProt P18825)
Sequence (P18825 whole entry, looked up): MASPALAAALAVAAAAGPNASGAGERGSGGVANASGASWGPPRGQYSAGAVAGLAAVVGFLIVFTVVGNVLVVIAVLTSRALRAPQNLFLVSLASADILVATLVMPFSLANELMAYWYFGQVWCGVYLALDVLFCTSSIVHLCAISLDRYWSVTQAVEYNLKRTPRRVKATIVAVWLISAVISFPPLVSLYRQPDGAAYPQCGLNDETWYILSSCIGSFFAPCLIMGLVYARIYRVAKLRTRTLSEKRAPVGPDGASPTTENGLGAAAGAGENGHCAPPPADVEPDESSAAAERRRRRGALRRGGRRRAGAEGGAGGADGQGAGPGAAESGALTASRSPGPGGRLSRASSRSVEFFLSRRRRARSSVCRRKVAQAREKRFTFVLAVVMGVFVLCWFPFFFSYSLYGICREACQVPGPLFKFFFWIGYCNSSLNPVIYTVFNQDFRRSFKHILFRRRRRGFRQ
test-details: compounds altering alpha2C-coupled GIRK flux – cell-based, HEK293 alpha2C/GIRK1/2, thallium flux, primary screen (AID 624);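 further: slope of fluorescence ratio to pre-addition baseline per second over 15 to 24 s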
experimental-parameters: thallium flux BTC fluorescence, at 10 µM, actives lie on both sides
# slope per record follows

| compound | slope |
| --- | --- |
| Cc1cc(C(=O)Nc2ccc(S(=O)(=O)Nc3onc(C)c3C)cc2)cs1 | 0.00493 |
| COc1ccc(-c2nc(C)c(C(C)=O)n2O)cc1OC | 0.00569 |
| CCN(CC)S(=O)(=O)c1ccc(C(=O)N2CCN=C2SCc2cccnc2)cc1 | 0.0061 |
| CCC(=O)Nc1cc(C)c(NC(=O)C23CC4CC(CC(C4)C2)C3)cn1 | 0.00598 |
| Cc1occc1C(=O)Nc1ccc(S(=O)(=O)N2CCN(C)CC2)cc1 | 0.00548 |
| CCN1CCN(c2nc3c(c(=O)n(C)c(=O)n3C)n2Cc2cccc3ccccc23)CC1 | 0.00535 |
| Cc1ccc(C)c(N2CCN(CCCNC(=O)Cn3cc4c(n3)CCC(C)C4)CC2)c1 (stereo not given) | 0.00559 |
| Cc1cc2c(c(=O)o1)C(C13C=CC(CC1)C3)C(C#N)=C(N)O2 (stereo not given) | 0.0051 |
| CCCCOc1ccc(-c2nnn(C(C)(C)C(=O)OC)n2)cc1 | 0.0068 |
| CCn1c(SCC(=O)N2c3ccccc3CCc3ccccc32)nc2c1c(=O)n(C)c(=O)n2C | 0.0052 |

All figures here come from PubChem BioAssay.
